# System: DU-145
# Assay Summary: Cytotoxicity testing (Example 7), MTS, DU-145
# Assay type: cell-based
# Condition: Table 4 comparative study; five days, 1 mM, MTS
Metric Name: DU145 % Cell# (%)
Answer format: numeric, % implied, no suffix.

Compound	Target Or Test System	Metric Name	Observed Result
CN(C)CCOc1ccc([C@H]2C[C@]3(C)[C@@H](O)CC[C@H]3[C@@H]3CCc4cc(O)ccc4[C@H]32)cc1 [Compound 31, RU 39411, reference compound]	DU-145	DU145 % Cell#	102
C[C@]12C[C@H](c3ccc(OCCCCCS(=O)(=O)CCCC(F)(F)C(F)(F)F)cc3)[C@@H]3c4ccc(O)cc4CC[C@H]3[C@@H]1CC[C@@H]2O [Compound 26, RU 58668, reference compound]	DU-145	DU145 % Cell#	73
C[C@]12CC[C@@H]3c4ccc(O)cc4CC[C@H]3[C@@H]1CC[C@@H]2O [Compound E2, estradiol-17β, reference compound]	DU-145	DU145 % Cell#	100
C[C@]12CC[C@@H]3c4ccc(O)cc4C[C@@H](CCCCCCCCC[S+]([O-])CCCC(F)(F)C(F)(F)F)[C@H]3[C@@H]1CC[C@@H]2O (some centres unmarked) [Compound 32, ICI-182780, reference compound]	DU-145	DU145 % Cell#	94

Okay, next one:
Task: Can you share its DU145 % Cell#? I mean this compound: C[C@]1(O)CC[C@H]2[C@@H]3CCC4=CC(=O)CCC4=C3C=C[C@@]21C [Compound 29, RU 1881, reference compound]
Result: 99
